Tested on: SNARK
Construct: gene NUAK2
Details: Compound Concentration (nM):1000;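 further: KINOMEscan scanMAX binding as percent activity remaining versus control; lower means stronger binding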
Quick rule: Percent Control of at least 90% means true (1), below that means false (0).

Incoming: Would you say `NS(=O)(=O)c1ccc(N/N=C2\C(=O)Nc3ccc(-c4cnco4)cc32)cc1` shows Percent Control at minimum 90%?
Outgoing: false (0)

Incoming: Would you say CC(C)COC(=O)c1ccc2c(c1)/C(=C/Nc1ccc(S(N)(=O)=O)cc1)C(=O)N2 [GW416981X] shows Percent Control at minimum 90%?
Outgoing: false (0)

Incoming: Would you say Nc1ncnc2occ(-c3ccc(NC(=O)Nc4cc(C(F)(F)F)ccc4F)cc3)c12 [GW770249X] shows Percent Control at minimum 90%?
Outgoing: false (0)

Incoming: Would you say C/C(Nc1ccc(S(N)(=O)=O)cc1)=C1/C(=O)Nc2ccccc21 [GW335962X] shows Percent Control at minimum 90%?
Outgoing: false (0)

Incoming: Would you say Cl.O=C(Nc1ccc(Oc2ccc3[nH]c(NC(=O)c4ccco4)nc3c2)cc1)Nc1cc(C(F)(F)F)ccc1F [GW683134A] shows Percent Control at minimum 90%?
Outgoing: true (1)

Incoming: Would you say COc1cccc(-n2ncc3c(N/N=C/c4ccncc4)ncnc32)c1 [GW784752X] shows Percent Control at minimum 90%?
Outgoing: true (1)

Incoming: Would you say COC(=O)Nc1nc2ccc(Oc3ccc(NC(=O)Nc4cc(C(F)(F)F)ccc4F)cc3)cc2s1.Cl [GW693917A] shows Percent Control at minimum 90%?
Outgoing: false (0)

Incoming: Would you say C[C@@H](Oc1cc(-n2cnc3ccc(OC4CCN(C)CC4)cc32)sc1C(N)=O)c1ccccc1Cl [GSK579289A] shows Percent Control at minimum 90%?
Outgoing: false (0)

Incoming: Would you say `O=C(Nc1n[nH]c2nc(-c3ccc(O)cc3)c(Br)cc12)C1CC1` shows Percent Control at minimum 90%?
Outgoing: true (1)

* * *

Tested on: MET(M1250T)
Conditions: Compound Concentration (nM):1000
Answer each item with its documented Percent Control.
Give the value in % but do not write % after it.

Incoming: Output measured Percent Control for this item: C/C(Nc1ccc(S(N)(=O)=O)cc1)=C1/C(=O)Nc2ccccc21 [GW335962X]
Outgoing: 91

Incoming: Output measured Percent Control for this item: NS(=O)(=O)c1ccc(Nc2ncc(-c3ccccc3)o2)cc1 [GW572399X]
Outgoing: 100

Incoming: Output measured Percent Control for this item: COc1cccc(-n2ncc3c(N/N=C/c4ccncc4)ncnc32)c1 [GW784752X]
Outgoing: 46

Incoming: Output measured Percent Control for this item: COC(=O)Nc1nc2ccc(Oc3ccc(NC(=O)Nc4cc(C(F)(F)F)ccc4F)cc3)cc2s1.Cl [GW693917A]
Outgoing: 19

Incoming: Output measured Percent Control for this item: C[C@@H](Oc1cc(-n2cnc3ccc(OC4CCN(C)CC4)cc32)sc1C(N)=O)c1ccccc1Cl [GSK579289A]
Outgoing: 68

Incoming: Output measured Percent Control for this item: Cl.O=S1CCN(Cc2ccc(-c3ccc4ncnc(Nc5ccc(OCc6ccccc6)c(F)c5)c4c3)o2)CC1 [GW576924A]
Outgoing: 100

Incoming: Output measured Percent Control for this item: CC1=C(C(=O)Nc2ccc3[nH]ncc3c2)C(c2ccc(Cl)c(Cl)c2)CC(=O)N1 (centres unmarked) [GSK299115A]
Outgoing: 95

Incoming: Output measured Percent Control for this item: Cl.O=C(O[C@H]1CN[C@H](C#Cc2cc3ncnc(Nc4ccc5c(cnn5Cc5ccccc5)c4)c3s2)C1)N1CCOCC1 [GSK200398A]
Outgoing: 86

Incoming: Output measured Percent Control for this item: NS(=O)(=O)c1ccc(N/N=C2\C(=O)Nc3ccc(-c4cnco4)cc32)cc1 [GW276655]
Outgoing: 63

Incoming: Output measured Percent Control for this item: Cl.O=C(Nc1ccc(Oc2ccc3[nH]c(NC(=O)c4ccccc4)nc3c2)cc1)Nc1cc(C(F)(F)F)ccc1F [GW709042A]
Outgoing: 78

Incoming: Output measured Percent Control for this item: Cc1cc(O)cc(C)c1/C=C/c1cncc(C(N)=O)c1 [GW435821X]
Outgoing: 100

Incoming: Output measured Percent Control for this item: Cl.O=C(Nc1ccc(Oc2ccc3[nH]c(NC(=O)c4ccco4)nc3c2)cc1)Nc1cc(C(F)(F)F)ccc1F [GW683134A]
Outgoing: 27

Incoming: Output measured Percent Control for this item: COc1cc2ncn(-c3cc(O[C@H](C)c4ccccc4Cl)c(C(N)=O)s3)c2cc1OC [GSK237701A]
Outgoing: 81

Incoming: Output measured Percent Control for this item: COc1cc2ncnc(Nc3ccc4c(cnn4Cc4ccccc4)c3)c2cc1OC.Cl [GW282449A]
Outgoing: 100

Incoming: Output measured Percent Control for this item: Cl.c1ccc(Cc2nc3ccc(Nc4ncnc5ccccc45)cc3[nH]2)cc1 [GR269666A]
Outgoing: 100

Incoming: Output measured Percent Control for this item: COc1cc(N2CCN(C(C)C)CC2)ccc1Nc1nc(Nc2ccc(F)cc2C(=O)NC[C@@H](O)CO)c2cc[nH]c2n1 [GSK1392956A]
Outgoing: 78

Incoming: Output measured Percent Control for this item: NS(=O)(=O)c1ccc(N/N=C2\C(=O)Nc3ccc(Cl)cc32)cc1 [GW280670X]
Outgoing: 100

* * *

Tested on: PIM3
Settings: Compound Concentration (nM):1000
attributeMeasured: Percent Control (%)
Give the value in % but do not write % after it.

Incoming: Output measured Percent Control for this item: Cl.O=C(O[C@H]1CN[C@H](C#Cc2cc3ncnc(Nc4ccc5c(cnn5Cc5ccccc5)c4)c3s2)C1)N1CCOCC1 [GSK200398A]
Outgoing: 100

Incoming: Output measured Percent Control for this item: COc1cc(N2CCN(C(C)C)CC2)ccc1Nc1nc(Nc2ccc(F)cc2C(=O)NC[C@@H](O)CO)c2cc[nH]c2n1 [GSK1392956A]
Outgoing: 100

Incoming: Output measured Percent Control for this item: COc1ccc(COc2ccc(Cc3cnc(N)nc3N)cc2OC)cc1 [GW632580X]
Outgoing: 100

* * *

System: BLK
Conditions: Compound Concentration (nM):1000
attributeMeasured: Percent Control
A bare number is not enough; add the unit after it.

Incoming: Report value: Percent Control, system: BLK, molecule: Cl.O=C(O[C@H]1CN[C@H](C#Cc2cc3ncnc(Nc4ccc5c(cnn5Cc5ccccc5)c4)c3s2)C1)N1CCOCC1 [GSK200398A]
Outgoing: 100%

Incoming: Report value: Percent Control, system: BLK, molecule: CC1=C(C(=O)Nc2ccc3[nH]ncc3c2)C(c2ccc3ccccc3c2)CC(=O)N1 (stereo not drawn) [GSK270822A]
Outgoing: 35%

Incoming: Report value: Percent Control, system: BLK, molecule: `CCc1ccc(Oc2nccc(-c3c(-c4ccc(F)cc4)ncn3C3CCNCC3)n2)cc1`
Outgoing: 82%

Incoming: Report value: Percent Control, system: BLK, molecule: CCS(=O)(=O)c1ccc(OC)c(Nc2ncc(-c3cccc(OC)c3)o2)c1 [GW580509X]
Outgoing: 21%

Incoming: Report value: Percent Control, system: BLK, molecule: `COc1ccc2cc(-c3c(-c4ccncc4)nc(-c4ccc(S(C)(=O)=O)cc4C)n3C)ccc2c1`
Outgoing: 52%

Incoming: Report value: Percent Control, system: BLK, molecule: Cl.c1ccc(Cc2nc3ccc(Nc4ncnc5ccccc45)cc3[nH]2)cc1 [GR269666A]
Outgoing: 100%

* * *

Tested on: PIK3CA(Q546K)
Conditions: Compound Concentration (nM):1000
attributeMeasured: Percent Control (%)
Give the value in % but do not write % after it.

Incoming: Output measured Percent Control for this item: CC(C)COC(=O)c1ccc2c(c1)/C(=C/Nc1ccc(S(N)(=O)=O)cc1)C(=O)N2 [GW416981X]
Outgoing: 100

Incoming: Output measured Percent Control for this item: CN(C)c1cc2c(Nc3ccc4c(cnn4Cc4ccccc4)c3)ncnc2cn1 [GW282974X]
Outgoing: 85

Incoming: Output measured Percent Control for this item: Cl.c1ccc(Cc2nc3ccc(Nc4ncnc5ccccc45)cc3[nH]2)cc1 [GR269666A]
Outgoing: 100

Incoming: Output measured Percent Control for this item: COc1cccc(-c2c[nH]c3c(N/N=C/c4ccncc4)ncnc23)c1 [GW814408X]
Outgoing: 100

Incoming: Output measured Percent Control for this item: COc1ccc2[nH]c3c4[nH]c5ccc(OC)cc5c4c4c(c3c2c1)C(=O)NC4=O [GW296115X]
Outgoing: 91

Incoming: Output measured Percent Control for this item: COc1cc(N2CCN(C(C)C)CC2)ccc1Nc1nc(Nc2ccc(F)cc2C(=O)NC[C@@H](O)CO)c2cc[nH]c2n1 [GSK1392956A]
Outgoing: 100

Incoming: Output measured Percent Control for this item: COc1cccc(-n2ncc3c(N/N=C/c4ccncc4)ncnc32)c1 [GW784752X]
Outgoing: 100

Incoming: Output measured Percent Control for this item: `NS(=O)(=O)c1ccc(N/N=C2\C(=O)Nc3ccc(-c4cnco4)cc32)cc1`
Outgoing: 97

Values were extracted from paper PMC7826789.
